Biological target: NR2F6 (Homo sapiens)
Construct: expressed in transfected cells; also transient transfection
Sequence (P10588 1-404): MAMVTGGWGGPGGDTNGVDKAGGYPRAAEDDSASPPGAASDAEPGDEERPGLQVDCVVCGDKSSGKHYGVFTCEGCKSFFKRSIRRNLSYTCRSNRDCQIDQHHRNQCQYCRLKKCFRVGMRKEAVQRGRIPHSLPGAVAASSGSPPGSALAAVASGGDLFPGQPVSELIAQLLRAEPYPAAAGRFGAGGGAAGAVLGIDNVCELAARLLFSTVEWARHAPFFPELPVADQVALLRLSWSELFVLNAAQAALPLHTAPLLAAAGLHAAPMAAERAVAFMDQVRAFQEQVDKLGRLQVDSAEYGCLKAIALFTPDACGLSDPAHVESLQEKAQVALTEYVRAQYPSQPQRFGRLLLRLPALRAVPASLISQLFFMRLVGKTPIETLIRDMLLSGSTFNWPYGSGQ
Test: NR2F6 agonist screening, Firefly signal cmpd/DMSO
Format: cell-based
Conditions: 10 uM; clone F4
Reported Firefly F4, cmpd/DMSO (mean) by item:

>  <compound>
O=c1cccc2n1CCN(c1nc(NCC3CCCO3)nc(N3CCCC3)n1)C2 (stereo not drawn)

>  <Firefly F4, cmpd/DMSO (mean)>
0.8

$$$$
>  <compound>
COC(=O)CNc1c(C#N)c(C(F)(F)F)nc2ccc(OC)cc12

>  <Firefly F4, cmpd/DMSO (mean)>
0.8

$$$$
>  <compound>
CCOC(=O)Cc1sc(Nc2nc(C)cc(C)n2)nc1-c1ccccc1

>  <Firefly F4, cmpd/DMSO (mean)>
0.9

$$$$
>  <compound>
CCCNc1nc(N2CCOCC2)nc(N2CC3CC(C2)c2cccc(=O)n2C3)n1 (stereo not drawn)

>  <Firefly F4, cmpd/DMSO (mean)>
1.1

$$$$
>  <compound>
O=c1cccc2n1CC1CC2CN(c2nc(N3CCCC3)nc(N3CCCC3)n2)C1 (stereo not drawn)

>  <Firefly F4, cmpd/DMSO (mean)>
1.1

$$$$
>  <compound>
Cc1cc(-c2ccccc2)nc(Nc2nc(-c3ccccc3)c(CC(=O)O)s2)n1

>  <Firefly F4, cmpd/DMSO (mean)>
1.6

$$$$
>  <compound>
CCOC(=O)c1cnc2cc(C)c(C)cc2c1NCCCN(C)C

>  <Firefly F4, cmpd/DMSO (mean)>
3.8

$$$$
>  <compound>
COc1ccc(-c2cc3n(n2)C(N)=C(C#N)C(c2cccn2C)(C(F)(F)F)N3)cc1OC (stereo not drawn)

>  <Firefly F4, cmpd/DMSO (mean)>
0.9

$$$$
>  <compound>
COc1ccc2nc(C(F)(F)F)c(C#N)c(N3CCN(C)CC3)c2c1

>  <Firefly F4, cmpd/DMSO (mean)>
1.1

$$$$
